Test system: Fibroblast
assay: Incucyte cell viability with human fibroblast; further: unitless GR value; below 1 slowed growth and below 0 cell loss
Assay type: toxicity, cell-based
conditionLabel: 24 h, 10 µM, compound concentration 10 uM, replicate number 2
Mark Satisfied for reported Growth Rate of 0.3 or greater; mark Not satisfied for anything smaller.

Query: Determine whether measured Growth Rate meets or exceeds 0.3 for `COc1cc2nc(C)nc(N[C@H](C)c3cc(N)cc(C(F)(F)F)c3)c2cc1O[C@H]1CCOC1`
Reply: Satisfied

Query: Determine whether measured Growth Rate meets or exceeds 0.3 for NCC1CCC(CNc2nc(NCc3ccccc3OC(F)(F)F)ncc2[N+](=O)[O-])CC1 (stereo not drawn)
Reply: Satisfied

Query: Determine whether measured Growth Rate meets or exceeds 0.3 for `Cc1cc(-c2nc(-c3ccc(OC(F)(F)F)cc3)no2)nn1Cc1ccnc(N2CCN(C3CC3)CC2)c1`
Reply: Satisfied

Query: Determine whether measured Growth Rate meets or exceeds 0.3 for `CC1(C)CCN(C(=O)C2CN(c3c4c(nc5ccnn35)CCNCC4)C2)C1.O=C(O)C(F)(F)F`
Reply: Satisfied

Query: Determine whether measured Growth Rate meets or exceeds 0.3 for `CCc1nc(C2CCC2)n2nc(-c3ccccc3)[nH]c(=O)c12`
Reply: Satisfied

Query: Determine whether measured Growth Rate meets or exceeds 0.3 for `COc1cc(/C=C(\C#N)C(=O)Nc2nnc(C(F)(F)F)s2)ccc1OCc1ccc(C(F)(F)F)cc1C(F)(F)F`
Reply: Satisfied

Query: Determine whether measured Growth Rate meets or exceeds 0.3 for `O=C(O)[C@]1(Cc2cccc(Nc3nccs3)n2)CC[C@@H](Oc2cccc(Cl)c2F)CC1`
Reply: Not satisfied

Query: Determine whether measured Growth Rate meets or exceeds 0.3 for Cl.N/C(=N\C(=O)c1nc(Cl)c(N)nc1N)NCc1ccccc1 [BENZAMIL HYDROCHLORIDE]
Reply: Satisfied

Query: Determine whether measured Growth Rate meets or exceeds 0.3 for `COc1ccc(F)c(F)c1C(=O)c1cnc(NC2CCN(S(C)(=O)=O)CC2)nc1N`
Reply: Not satisfied

Query: Determine whether measured Growth Rate meets or exceeds 0.3 for `CC(C)(O)c1cnc(N2C[C@@]3(CCC[C@](C)(Cn4cnc5ccc(C#N)cc54)C3)OC2=O)cn1`
Reply: Satisfied

Query: Determine whether measured Growth Rate meets or exceeds 0.3 for `COC(=O)c1sccc1S(=O)(=O)Nc1ccc(Nc2ccccc2)cc1OC`
Reply: Satisfied

Query: Determine whether measured Growth Rate meets or exceeds 0.3 for `CN1C(=O)Cc2ccc(-c3ccc(C[C@@H](C#N)NC(=O)[C@H]4N[C@@H]5CC[C@H]4C5)c(F)c3)cc21`
Reply: Satisfied

Query: Determine whether measured Growth Rate meets or exceeds 0.3 for `COCCOCn1c(S(C)(=O)=O)nc2c1c(=O)n(C)c(=O)n2C`
Reply: Satisfied

Query: Determine whether measured Growth Rate meets or exceeds 0.3 for CCN(CC)C(=O)C1CN2CCc3cc(OC)c(OC)cc3C2CC1OC(C)=O (stereo not drawn) [BENZQUINAMIDE]
Reply: Satisfied

Query: Determine whether measured Growth Rate meets or exceeds 0.3 for `CN(C)C/C=C/C(=O)Nc1cccc(C(=O)Nc2ccc(Nc3nccc(-c4cccnc4)n3)cc2)c1`
Reply: Not satisfied

Query: Determine whether measured Growth Rate meets or exceeds 0.3 for `Cn1cc(-c2ccc(-c3cncc(Cl)c3N3CCC4(CCNC4=O)CC3)cc2)cn1`
Reply: Satisfied

Query: Determine whether measured Growth Rate meets or exceeds 0.3 for `Cc1ccc(C)c(OCCCC(C)(C)C(=O)O[C@@H]2O[C@H](C(=O)O)[C@@H](O)[C@H](O)[C@H]2O)c1`
Reply: Satisfied

Query: Determine whether measured Growth Rate meets or exceeds 0.3 for `CCN1CCN(Cc2ccc(NC(=O)c3ccc(C)c(Oc4ccnc5[nH]ccc45)c3)cc2C(F)(F)F)CC1.Cl.Cl.Cl.O`
Reply: Not satisfied

Query: Determine whether measured Growth Rate meets or exceeds 0.3 for `FC(F)(F)c1ccccc1-c1cc(C(F)(F)F)c2[nH]c(C3=NOC4(CCCCC4)C3)nc2c1`
Reply: Not satisfied

Query: Determine whether measured Growth Rate meets or exceeds 0.3 for `CC(C)(O)[C@H]1CC[C@H](Nc2ccc3ncc(-c4cccc(C(F)(F)F)c4)n3n2)CC1`
Reply: Not satisfied

Query: Determine whether measured Growth Rate meets or exceeds 0.3 for `C=CC(=O)Nc1cc(Nc2nccc(-n3cc(CN(C)C)c(-c4ccccc4)n3)n2)c(OC)cc1N1CCOCC1`
Reply: Satisfied

Query: Determine whether measured Growth Rate meets or exceeds 0.3 for `C[C@H](CCOc1cccc(CC(=O)O)c1)N(Cc1cccc(C(F)(F)F)c1Cl)CC(c1ccccc1)c1ccccc1.Cl`
Reply: Satisfied

Query: Determine whether measured Growth Rate meets or exceeds 0.3 for `CC1(C)C(=O)N([C@H]2CCc3c(O)cccc32)c2nc(Nc3cccc(CN4CCCC4)c3)ncc21`
Reply: Not satisfied

* * *

Kindly state Growth Rate for each of the entries shown.
System: U2OS
assay: Incucyte cell viability with U2OS; further: unitless GR value; below 1 slowed growth and below 0 cell loss
Format: toxicity, cell-based
conditionLabel: human, 12 h, 10 µM, compound concentration 10 uM, replicate number 2

Query: Record `CCO[C@H](COc1ccc(C(F)(F)F)cc1)CSc1ccc(OCC(=O)[O-])c(C)c1.[Na+]` : what is its Growth Rate with U2OS?
Reply: 0.8

Query: Record `Cn1nccc1-c1ccc(Sc2cccc(C3(C(N)=O)CCOCC3)c2)cc1` : what is its Growth Rate with U2OS?
Reply: 0.79

Query: Record `O=C(Nc1cccc(C(F)(F)F)c1)c1cccc(-n2cc(-c3ccco3)nn2)c1` : what is its Growth Rate with U2OS?
Reply: 0.81

* * *

System: U2OS
assay: Incucyte cell viability with U2OS; further: unitless GR value; below 1 slowed growth and below 0 cell loss
Format: toxicity, cell-based
conditionLabel: human, 18 h, 10 µM, compound concentration 10 uM, replicate number 1
Kindly state Growth Rate for each of the entries shown.

Query: Recorded Growth Rate for `c1ccc(C2CCN(c3cnc4c(N5CCOCC5)nccn34)CC2)cc1` , please?
Reply: 0.9

Query: Recorded Growth Rate for `CC(C)C(=O)N[C@@H]1CCN(C(=O)Nc2nc3c(s2)-c2nc(-c4ccccc4Cl)ncc2CC3)C1` , please?
Reply: 0.91

Query: Recorded Growth Rate for `CNC(=O)COc1cc2cc(Nc3nc(N4C[C@H](C)C[C@H](C)C4)ncc3Cl)ccc2n(C)c1=O` , please?
Reply: 0.92

Query: Recorded Growth Rate for `Cc1c(N2CCNCC2)nc2ccc(Br)cc2c1C(=O)NC[C@H](CCC(=O)O)c1ccccc1Cl` , please?
Reply: 0.91

* * *

Kindly state Growth Rate for each of the entries shown.
Tested on: U2OS
assay: Incucyte cell viability with U2OS; further: unitless GR value; below 1 slowed growth and below 0 cell loss
Type: toxicity, cell-based
conditionLabel: human, 0 h, 10 µM, compound concentration 10 uM, replicate number 1
Field format: numeric only.

Query: Recorded Growth Rate for `Cn1c(C(=O)N[C@@H](CO)c2ccc(C(=O)O)cc2)cc2cc(Cl)ccc21` , please?
Reply: 0.76

Query: Recorded Growth Rate for `NCc1ccc(OCCCc2sc(-c3ccc4c(c3)/C(=N/Nc3nc5ccccc5s3)CCC4)nc2C(=O)O)cc1` , please?
Reply: 0.77

Query: Recorded Growth Rate for `Fc1ccc(Cl)cc1-c1nc(Nc2ccncc2)c2nccnc2n1` , please?
Reply: -0.59

Query: Recorded Growth Rate for Cc1cc(C(C#N)c2ccc(Cl)cc2)c(Cl)cc1NC(=O)c1cc(I)cc(I)c1O (stereo unspecified) [CLOSANTEL] , please?
Reply: 0.36

Query: Recorded Growth Rate for `CC(=O)N1CCN([C@H]2CCC[C@@H](NC(=O)c3cc4c(F)ccc(C)c4[nH]3)C2)CC1.O=C(O)C(F)(F)F` , please?
Reply: 0.28

Query: Recorded Growth Rate for `CNC(=O)c1ccc2c(c1)NC(=O)/C2=C(\Nc1ccc(CN2CCCCC2)cc1)c1ccccc1.Cl.O` , please?
Reply: -1

Query: Recorded Growth Rate for CN1C(=O)c2c(nn(Cc3ccc(-c4cccc(F)n4)cc3)c2Nc2ccccc2)N2C1=N[C@@H]1CCC[C@@H]12.O=P(O)(O)O [LENRISPODUN PHOSPHATE] , please?
Reply: 0.51

Query: Recorded Growth Rate for `Cc1ncsc1-c1ccc(CNC(=O)[C@@H]2C[C@@H](O)CN2C(=O)[C@@H](NC(=O)CCCCNC(=O)c2ccc(-c3ccc(N4CCN(C)CC4)c(NC(=O)c4c[nH]c(=O)cc4C(F)(F)F)c3)cc2)C(C)(C)C)cc1` , please?
Reply: 0.71

Query: Recorded Growth Rate for CN1CCC[C@H]1c1cccnc1 [NICOTINE] , please?
Reply: -0.33

Query: Recorded Growth Rate for `CCc1nc(C2CCC2)n2nc(-c3ccccc3)[nH]c(=O)c12` , please?
Reply: 0.68

Query: Recorded Growth Rate for `CN1Cc2nccc(-c3cn(C)nc3-c3ccc(F)cc3)c2C1=O.Cl` , please?
Reply: 0.53

Query: Recorded Growth Rate for C=CC(=O)N1CCC[C@@H](n2nc(-c3ccc(Oc4ccccc4)cc3)c3c(N)ncnc32)C1 [IBRUTINIB] , please?
Reply: -0.06

Query: Recorded Growth Rate for O=C(O)CCCCCC[C@@H]1C(=O)NC(=O)N1CCC(O)C1CCCCC1 (stereo partly specified) , please?
Reply: 0.14

Query: Recorded Growth Rate for `CCC(C)(C)CC[C@H](NC(=O)N1CCOCC1)C(=O)NC1(C#N)CCN(C)CC1` , please?
Reply: 0.09

Query: Recorded Growth Rate for `CC(C)n1cnc2c(Nc3cccc(Cl)c3)nc(N[C@H]3CCCC[C@@H]3N)nc21` , please?
Reply: -1

Query: Recorded Growth Rate for `C[C@H](CCC(=O)[O-])[C@H]1CC[C@H]2[C@@H]3[C@@H](O)C[C@@H]4C[C@H](O)CC[C@]4(C)[C@H]3CC[C@]12C.[Na+]` , please?
Reply: -0.51

Query: Recorded Growth Rate for `COc1ccc(CC[C@@H](OC(=O)[C@@H]2CCCCN2C(=O)[C@H](c2cc(OC)c(OC)c(OC)c2)C2CCCCC2)c2cccc(OCCN3CCOCC3)c2)cc1OC` , please?
Reply: -1

Query: Recorded Growth Rate for C[C@H](CCC(=O)O)[C@H]1CC[C@H]2[C@@H]3CC[C@@H]4C[C@H](O)CC[C@]4(C)[C@H]3C[C@H](O)[C@]12C [DEOXYCHOLIC ACID] , please?
Reply: 0.46

Query: Recorded Growth Rate for Cc1ccccc1C1C(=O)N(C)c2cnc(Nc3ccc(S(N)(=O)=O)cc3)nc2N1C (stereo unspecified) , please?
Reply: -0.73

Query: Recorded Growth Rate for `CCCCOc1c(C(=O)c2c(F)cc(C)cc2F)c[nH]c2nncc1-2` , please?
Reply: -1

Query: Recorded Growth Rate for `CC1CCN(C(=O)[C@@H](CCn2cccc2C#N)NS(=O)(=O)c2cccc3[nH]ccc23)CC1` , please?
Reply: 0.26

Just for reference, ChEMBL document CHEMBL5303304 is where these values come from.
